The reported numbers originate from ChEMBL document CHEMBL2424551.

System: K562
Assay: Growth inhibition of human K562 cells at 10 uM after 48 hrs by SRB assay
Format: functional
Settings: K562, 48 h, read-out: GI
Mark Not satisfied for inhibition of growth at 10 µM values under 40%, and Satisfied for everything at or above.

smilesText | category
O=c1c2cccc3c(Nc4ccc(Br)cn4)ccc(c32)c2nc3ccccc3n12 | Not satisfied
O=c1c2cccc3c(Nc4ccccn4)ccc(c32)c2nc3ccccc3n12 | Satisfied
O=c1c2cccc3c(Nc4c(F)cccc4F)ccc(c32)c2nc3ccccc3n12 | Not satisfied
O=c1c2cccc3c(NCCO)ccc(c32)c2nc3ccccc3n12 | Not satisfied
O=c1c2cccc3c(N4CCOCC4)ccc(c32)c2nc3ccccc3n12 | Not satisfied
O=c1c2cccc3c(NC4CCCCC4)ccc(c32)c2nc3ccccc3n12 | Not satisfied
O=c1c2cccc3c(N4CCCC4)ccc(c32)c2nc3ccccc3n12 | Not satisfied
O=c1c2cccc3c(Nc4ccc(F)cc4)ccc(c32)c2nc3ccccc3n12 | Not satisfied
CCCCNc1ccc2c3c1cccc3c(=O)n1c3ccccc3nc21 | Not satisfied
O=c1[nH]cc(F)c(=O)[nH]1 | Satisfied

* * *

inhibition of growth at 10 µM values, listed per item
System: SNB-75
Assay: Growth inhibition of human SNB75 cells at 10 uM after 48 hrs by SRB assay
Format: functional
Conditions: SNB-75, 48 h, read-out: GI
propertyMeasured: inhibition of growth at 10 µM (%)

smilesText | u | rel | reported
O=c1c2cccc3c(Nc4ccc(F)cc4)ccc(c32)c2nc3ccccc3n12 | % | = | 29.2
O=c1c2cccc3c(N4CCOCC4)ccc(c32)c2nc3ccccc3n12 | % | = | 20.9
O=c1[nH]cc(F)c(=O)[nH]1 | % | = | 65.9
O=c1c2cccc3c(NC4CCCCC4)ccc(c32)c2nc3ccccc3n12 | % | < | 20
O=c1c2cccc3c(Nc4ccc(Br)cn4)ccc(c32)c2nc3ccccc3n12 | % | = | 56
O=c1c2cccc3c(Nc4c(F)cccc4F)ccc(c32)c2nc3ccccc3n12 | % | = | 20.1
CCCCNc1ccc2c3c1cccc3c(=O)n1c3ccccc3nc21 | % | = | 26.6
O=c1c2cccc3c(NCCO)ccc(c32)c2nc3ccccc3n12 | % | < | 20
Nc1ccc(Sc2ccc3c4c2cccc4c(=O)n2c4ccccc4nc32)cc1 | % | = | 56.3
O=c1c2cccc3c(Nc4ccccn4)ccc(c32)c2nc3ccccc3n12 | % | = | 21.4
O=c1c2cccc3c(N4CCCC4)ccc(c32)c2nc3ccccc3n12 | % | = | 27

* * *

inhibition of growth at 10 µM reference
Test system: DU-145
Test: Growth inhibition of human DU145 cells at 10 uM after 48 hrs by SRB assay
Format: functional
Conditions: DU-145, 48 h, read-out: GI

smilesText | inhibition of growth at 10 µM
O=c1[nH]cc(F)c(=O)[nH]1 | 35.5%
O=c1c2cccc3c(N4CCCC4)ccc(c32)c2nc3ccccc3n12 | 21.9%
O=c1c2cccc3c(NCCO)ccc(c32)c2nc3ccccc3n12 | < 20%
O=c1c2cccc3c(NC4CCCCC4)ccc(c32)c2nc3ccccc3n12 | < 20%
O=c1c2cccc3c(Nc4c(F)cccc4F)ccc(c32)c2nc3ccccc3n12 | < 20%
O=c1c2cccc3c(Nc4ccc(Br)cn4)ccc(c32)c2nc3ccccc3n12 | < 20%
O=c1c2cccc3c(N4CCOCC4)ccc(c32)c2nc3ccccc3n12 | < 20%
CCCCNc1ccc2c3c1cccc3c(=O)n1c3ccccc3nc21 | < 20%
O=c1c2cccc3c(Nc4ccccn4)ccc(c32)c2nc3ccccc3n12 | < 20%
Nc1ccc(Sc2ccc3c4c2cccc4c(=O)n2c4ccccc4nc32)cc1 | 60.7%
O=c1c2cccc3c(Nc4ccc(F)cc4)ccc(c32)c2nc3ccccc3n12 | < 20%
